- assay: HNO production determined via N2O quantification (GC headspace analysis)
- Type: physicochemical
- settings: PBS, 37° C., 90 minutes incubation
assay-metric: Relative N2O Yield (90 minutes incubation)
Answer with the number, then the unit.

# count of solved cases: 5
                                   compound  meas_value
0  O=S(=O)(NO)c1c(Cl)ccc2nonc12 [Compound 50]         31%
1     Cc1ccc(F)cc1S(=O)(=O)NO [Compound 20]         90%
2  CS(=O)(=O)c1ccc(S(=O)(=O)NO)cc1 [Compound 93]         86%
3    O=S(=O)(NO)c1cccc2nsnc12 [Compound 24]         60%
4   COc1ccc(Br)cc1S(=O)(=O)NO [Compound 17]         53%

input: Please give the measured Relative N2O Yield (90 minutes incubation) for this compound: O=C(c1ccc(S(=O)(=O)NO)s1)N1CCOCC1 [Compound 21]
output: 73.5%
